Provenance of the data: ChEMBL document CHEMBL1144017

Kindly supply the reported Activity values for the records listed here.
Species on record: Rattus norvegicus
Test: Displacement of [3H]kainate from KA receptor in rat cortical membrane at 100 uM
Type: cell membranes
Answers are plain numbers, in %.

The cases that follow already have their Activity on record.
compound=CCOC(=O)c1ccc(NC(=O)Nc2cc3c(cc2Cl)[nH]c(=O)n2nc(C(=O)OCC)c(C(=O)OCC)c32)cc1 number=15
compound="CCOC(=O)c1nn2c(=O)[nH]c3cc(Cl)c(NC(=O)NC(Cc4ccccc4)C(=O)OC)cc3c2c1C(=O)OCC (racemic)" number=16
compound=CCOC(=O)CNC(=O)Nc1cc2c(cc1Cl)[nH]c(=O)n1nc(C(=O)OCC)c(C(=O)OCC)c21 number=19
compound=CCOC(=O)c1nn2c(=O)[nH]c3cc(Cl)c(NC(=O)NCc4ccccc4)cc3c2c1C(=O)OCC number=0
compound=CCOC(=O)CCNC(=O)Nc1cc2c(cc1Cl)[nH]c(=O)n1nc(C(=O)OCC)c(C(=O)OCC)c21 number=32
compound=CCOC(=O)CCCNC(=O)Nc1cc2c(cc1Cl)[nH]c(=O)n1nc(C(=O)OCC)c(C(=O)OCC)c21 number=24

Next, consider the following compound.
# query: Activity of entry CCOC(=O)c1nn2c(=O)[nH]c3cc(Cl)c(-n4cccc4)cc3c2c1C(=O)OCC
12

----------
Organism: Rattus norvegicus
Assay: Displacement of [3H]kainate from KA receptor in rat cortical membrane at 100 uM
Assay type: cell membranes
Tick met if Activity is 20% or greater. Tick not met if Activity is less than 20%.

Solved cases (5 shown):
smiles_str=CCOC(=O)c1nn2c(=O)[nH]c3cc(Cl)c([N+](=O)[O-])cc3c2c1[N+](=O)[O-] assigned_class="not met"
smiles_str=CCOC(=O)c1nn2c(=O)[nH]c3cc(Cl)c(NC(=O)NCCc4ccccc4)cc3c2c1C(=O)OCC assigned_class="not met"
smiles_str=CCOC(=O)c1nn2c(=O)[nH]c3cc(Cl)c([N+](=O)[O-])cc3c2c1Cl assigned_class=met
smiles_str=CCOC(=O)c1nn2c(=O)[nH]c3cc(Cl)c(NC(=O)Nc4ccccc4)cc3c2c1C(=O)OCC assigned_class="not met"
smiles_str=CCOC(=O)c1cccc(NC(=O)Nc2cc3c(cc2Cl)[nH]c(=O)n2nc(C(=O)OCC)c(C(=O)OCC)c32)c1 assigned_class="not met"

Shift focus to the following entry.
Given the entry O=C(O)c1nn2c(=O)[nH]c3cc(Cl)c([N+](=O)[O-])cc3c2c1[N+](=O)[O-] , answer whether its Activity meets or surpasses 20%.
met

----------
Organism: Rattus norvegicus
Assay: Ratio of Ki for rat NMDA receptor to Ki for rat AMPA receptor
Property Measured: Ratio Ki

The cases that follow already have their Ratio Ki on record.
smiles_str=CCOC(=O)c1nn2c(=O)[nH]c3cc(Cl)c([N+](=O)[O-])cc3c2c1Cl result="> 1.5"
smiles_str=CCNC(=O)Nc1cc2c(cc1Cl)[nH]c(=O)n1nc(C(=O)OCC)c(C(=O)OCC)c21 result="> 3.7"
smiles_str=CCOC(=O)CCNC(=O)Nc1cc2c(cc1Cl)[nH]c(=O)n1nc(C(=O)OCC)c(C(=O)OCC)c21 result="> 26"
smiles_str=CCOC(=O)c1nn2c(=O)[nH]c3cc(Cl)c(-n4cnnc4)cc3c2c1C(=O)OCC result="> 80"
smiles_str=O=C(O)c1nn2c(=O)[nH]c3cc(Cl)c(-n4cnnc4)cc3c2c1C(=O)O result="> 1000"

Please state, for each entry, its recorded Ratio Ki.
1. CCOC(=O)CNC(=O)Nc1cc2c(cc1Cl)[nH]c(=O)n1nc(C(=O)OCC)c(C(=O)OCC)c21
2. CCOC(=O)c1nn2c(=O)[nH]c3cc(Cl)c(-n4cccc4)cc3c2c1C(=O)OCC
3. CCOC(=O)c1nn2c(=O)[nH]c3cc(Cl)c(-n4ccc(C=O)c4)cc3c2c1C(=O)OCC

1. > 11
2. > 2
3. > 6

----------
Kindly supply the reported Ki values for the records listed here.
Target: Glutamate NMDA receptor
Assay: Displacement of [3H]glycine from NMDA receptor in rat cortical membrane
Format: cell membranes
Numbers only, in µM.

compound="O=C(Nc1cc2c(cc1Cl)[nH]c(=O)n1nc(C(=O)O)c(C(=O)O)c21)NC(Cc1ccccc1)C(=O)O (racemic)" number=61
compound=O=C(O)c1ccccc1C(=O)Nc1cc2c(cc1Cl)[nH]c(=O)n1nc(C(=O)O)c(C(=O)O)c21 number=27
compound=O=C(NCCc1ccccc1)Nc1cc2c(cc1Cl)[nH]c(=O)n1nc(C(=O)O)c(C(=O)O)c21 number=31
compound=CCOC(=O)c1nn2c(=O)[nH]c3cc(Cl)c(NC(=O)NCCc4ccccc4)cc3c2c1C(=O)OCC number=49
compound=O=C(O)CNC(=O)Nc1cc2c(cc1Cl)[nH]c(=O)n1nc(C(=O)O)c(C(=O)O)c21 number=54
compound=CCOC(=O)c1nn2c(=O)[nH]c3cc(Cl)c(NC(=O)c4ccccc4C(=O)O)cc3c2c1C(=O)OCC number=36

Next, consider the following compound.
# query: Ki of entry O=C(O)c1nn2c(=O)[nH]c3cc(Cl)c([N+](=O)[O-])cc3c2c1C(=O)O
1.25

----------
Assay: Displacement of [3H]kainate from KA receptor in rat cortical membrane
Type: cell membranes
Kindly supply the reported pIC50 values for the records listed here.
Give bare numbers, as −log10 of the molar value.

Please state, for each entry, its recorded pIC50.
1. O=C(O)CCNC(=O)Nc1cc2c(cc1Cl)[nH]c(=O)n1nc(C(=O)O)c(C(=O)O)c21
2. O=C(O)c1nn2c(=O)[nH]c3cc(Cl)c([N+](=O)[O-])cc3c2c1Cl
3. O=C(Nc1cc2c(cc1Cl)[nH]c(=O)n1nc(C(=O)O)c(C(=O)O)c21)NC(Cc1ccccc1)C(=O)O (racemic)

[5.34, 4.03, 4.40]

Please state, for each entry, its recorded pIC50.
1. O=C(Nc1ccccc1)Nc1cc2c(cc1Cl)[nH]c(=O)n1nc(C(=O)O)c(C(=O)O)c21
2. O=C(Nc1ccc(C(=O)O)cc1)Nc1cc2c(cc1Cl)[nH]c(=O)n1nc(C(=O)O)c(C(=O)O)c21

1: 4.96; 2: 4.89

----------
Kindly supply the reported Activity values for the records listed here.
Target: Glutamate NMDA receptor (Rattus norvegicus) (UniProt P35439+Q00959+Q00960+Q00961+Q62645+Q8VHN2+Q9R1M7)
Assay: Displacement of [3H]glycine from NMDA receptor in rat cortical membrane at 100 uM
Assay type: cell membranes
One number for each entry, in %.

Please state, for each entry, its recorded Activity.
1. O=C(O)c1nn2c(=O)[nH]c3cc(Cl)c(-n4cnnc4)cc3c2c1C(=O)O
2. CCOC(=O)c1nn2c(=O)[nH]c3cc(Cl)c(-n4ccc(C=O)c4)cc3c2c1C(=O)OCC
3. CCOC(=O)c1nn2c(=O)[nH]c3cc(Cl)c(-n4cccc4)cc3c2c1C(=O)OCC
4. CCOC(=O)c1nn2c(=O)[nH]c3cc(Cl)c([N+](=O)[O-])cc3c2c1Cl

1. 43
2. 20
3. 13
4. 45

# query: Activity of entry CCOC(=O)CCNC(=O)Nc1cc2c(cc1Cl)[nH]c(=O)n1nc(C(=O)OCC)c(C(=O)OCC)c21
32
